ASSAY NOTES: chemical genetic growth profiling, strain panel (AID 1159580);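 also: tested at 20 µM; growth read once vehicle control cultures reached saturation at 30 °C; 1 = growth at the plate median or of vehicle wells; lower values mean less growth of the strain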
PROTOCOL CONDITIONS: S. cerevisiae deletion strains, growth OD, locus YNL233W, strain BNI4, active compounds read low
The campaign covered roughly 5,500 compounds. About 2,000 (36%) were called active. Inconclusive results (about 18%) are left out. The list shows a part of the results.
Below is a list of entries, each paired with its recorded normalized growth value.

Below: 6 compounds and their reported normalized growth.
Summary for this compound, Cc1ccc(S(=O)(=O)NC(=O)NN2CC3CCCC3C2)cc1 (stereo unspecified) : normalized growth is 1.01 (inactive)

Summary for this compound, CC(C)=CCCC1(C)C=Cc2c(O)c3c(c(CC=C(C)C)c2O1)OC12C(CC4CC1C(C)(C)OC2(C/C=C(/C)C(=O)O)C4O)C3=O (stereo unspecified) : normalized growth is 1.06 (inactive)

Summary for this compound, "COc1ccc2[nH]cc(CCN)c2c1" : normalized growth is 1 (inactive)

Summary for this compound, "Nc1c2ccccc2nc2ccccc12" : normalized growth is 0.74 (active)

Summary for this compound, C[C@@H]1CC[C@]2(C(=O)O)CC[C@]3(C)C(=CCC4[C@@]5(C)CC[C@H](O)C(C)(C)C5CC[C@]43C)C2[C@H]1C (stereo partly specified) : normalized growth is 1.05 (inactive)

Summary for this compound, C/C=C(/C)C(=O)O[C@@H]1[C@H](OC(C)=O)[C@@]2(CO)C(CC1(C)C)C1=CCC3[C@@]4(C)CC[C@H](O[C@@H]5O[C@H](C(=O)O)[C@@H](O[C@@H]6O[C@H](CO)[C@@H](O)[C@H](O)[C@H]6O)[C@H](O)[C@H]5O[C@@H]5O[C@H](CO)[C@@H](O)[C@H](O)[C@H]5O)[C@](C)(CO)C4CC[C@@]3(C)[C@]1(C)C[C@H]2O (stereo partly specified) : normalized growth is 1.01 (inactive)

***
Summary for this compound, NC(Cc1c[nH]c2ccccc12)C(=O)O (stereo unspecified) : normalized growth is 0.999 (inactive)
